Assay: toxicity and toxic deaths in the 16/c experiment (Example IX)
Details: mouse, in vivo, iv
OBSERVED_PROPERTY: MTD (mg/kg)
One number for each entry, in mg/kg.

Task: Please supply the value of reported MTD for the item COc1cccc2c1C(=O)c1c(O)c3c(c(O)c1C2=O)C[C@@](O)(C(=O)CO)C[C@@H]3O[C@H]1C[C@H](N)[C@H](O)[C@H](C)O1
Result: 20
